Target: PSEN1 S169A–APH1A γ-secretase complex (Homo sapiens, UniProt P49768, S169A)
Construct: expressed in transfected cells; host or cells: Psen1/2 double KO/Aph1ABC triple KO MEFs, pools without clonal selection
Assay: Aβ40 secretion, MEF cell pool restored with PSEN1 S169A–APH1A
Type: cell-based
Settings: PSEN1 S169A (TM3)–APH1A cell pool; N = 3 to 4; mean (95% CI); decimal comma
metric: IC50 (µM)

[P] C[C@H](NC(=O)Cc1cc(F)cc(F)c1)C(=O)N[C@H](C(=O)OC(C)(C)C)c1ccccc1 [DAPT]
[Q] O=S(=O)(c1ccc(Cl)cc1)N1[C@H]2CC[C@@H]([C@H]1c1ccc(C(F)(F)F)cc1)[C@@H](O)C2 [(+)-9b]
Problem: Kindly identify which of P and Q has the larger recorded IC50 value. Could you answer with the label of the item you picked?
Solution: P
(P: 0.026 µM, Q: 0.0078 µM)
